- test method notes: Pharmacokinetic properties in Sprague-Dawley rats after intravenous (IV) and oral (PO) administration
- Type: in vivo
- condition details: male, Sprague-Dawley, plasma, 5 mg·kg^−1; rat, PO 5 mpk vs IV 1 mpk
reported property: bioavailability (%)
State just the number; it will be interpreted in %.

Request: Give the measured bioavailability of Cc1nc([C@@H](C)c2cc(Cl)c(F)c(C(=O)N[C@H]3CC[C@H](O)CC3)c2OC(C)C)n2ccnc(N)c12 [Compound 60] .
Response: 14.6

* * *

- test method notes: Pharmacokinetic properties in Sprague-Dawley rats after intravenous (IV) and oral (PO) administration
- Format: in vivo
- condition details: male, Sprague-Dawley, plasma, 10 mg/kg; rat, PO 10 mpk
reported property: half-life (h)
State just the number; it will be interpreted in h.

Request: Give the measured half-life of Cc1nc([C@@H](C)c2cc(Cl)c(F)c(C(=O)NCCN3CCN(C)CC3)c2OC(C)C)n2ccnc(N)c12 .
Response: 5.6
